- system-under-test: NL20 human bronchial epithelial cells expressing human Z-AAT (Homo sapiens, UniProt P01009, E366K)
- Construct: expressed in transfected cells; host or cells: NL20 human bronchial epithelial cells (NL20-SI line, doxycycline added)
- Sequence (P01009 25-418 E366K): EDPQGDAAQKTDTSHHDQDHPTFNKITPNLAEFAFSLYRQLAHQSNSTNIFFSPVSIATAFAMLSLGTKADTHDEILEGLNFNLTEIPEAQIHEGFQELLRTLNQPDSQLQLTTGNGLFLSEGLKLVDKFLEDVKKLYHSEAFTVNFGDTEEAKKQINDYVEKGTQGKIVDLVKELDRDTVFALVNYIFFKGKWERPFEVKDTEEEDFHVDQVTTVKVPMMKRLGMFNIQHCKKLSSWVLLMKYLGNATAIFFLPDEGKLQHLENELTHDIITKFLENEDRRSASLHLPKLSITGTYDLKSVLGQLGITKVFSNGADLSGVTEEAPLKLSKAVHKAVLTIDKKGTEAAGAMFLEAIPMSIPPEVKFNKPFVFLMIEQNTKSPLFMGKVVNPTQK
- protocol-text: AAT Function Assay (MSD Assay NL20-SI Cell Line)
- Assay type: cell-based
- stated-conditions: functionally active AAT (AAT-hNE complex) in supernatant of NL20 cells expressing human Z-AAT; read-out: NL20 Func. (EC50)
pEC50: −log10 of the molar value.
quantity-name: pEC50

| molecule | observed-value |
| --- | --- |
| CC(C)c1c(C2CC3(CC(C(=O)O)C3)C2)c2cc3[nH]ncc3cc2n1-c1ccc(F)cc1 (racemic) [Compound 34] | > 5.94 |

get_value(item= O=C(O)[C@H]1C[C@H](Cc2c(C3CCOCC3)n(-c3ccc(F)c(F)c3)c3cc4cn[nH]c4cc23)C1 (single isomer, unassigned) [Compound 71] , readout=pEC50) returns < 5.52

get_value(item= Cc1c2[nH]ncc2cc2c1c(C1CC3(CC(C(=O)O)C3)C1)c(C1CCOCC1)n2-c1ccc(F)c(F)c1 (stereo not drawn) [Compound 131] , readout=pEC50) returns > 5.94

get_value(item= O=C(O)CCc1c(C2CCOCC2)n(-c2ccc(F)c(Cl)c2)c2cc3cn[nH]c3cc12 [Compound 82] , readout=pEC50) returns < 5.52

get_value(item= Cc1cc(-n2c(C3CCOCC3)c(C3CC4(CC(C(=O)O)C4)C3)c3cc4[nH]nc(C)c4cc32)ccc1F (single isomer, unassigned) [Compound 127] , readout=pEC50) returns > 5.94

get_value(item= COCCc1c(C2CCOCC2)n(-c2ccc(F)cc2)c2cc3cn[nH]c3cc12 [Compound 149] , readout=pEC50) returns 5.52 to 5.94
